Test system: P. berghei ookinete development
measurement_parameters: primary screen at 1 μM, replicate B
So I've got a bunch of compounds here, and I need their % inhibition, Replicate B values.
Write your answer as a measured quantity: the number, then the unit.

What measured % inhibition, Replicate B goes with COc1ccc2nc3cc(Cl)ccc3c(Nc3ccc(C(=O)O)cc3)c2c1.Cl [TCMDC-138029] ? 90.70%

Recorded % inhibition, Replicate B of CCC(C)(C)c1ccc2nc(N)nc(N)c2c1C [TCMDC-137829] , please. 76.04%

Which % inhibition, Replicate B value is on record for Cc1[nH]c(C)c(-c2ccc(C(=O)c3ccc(Cl)cc3)cc2)c(=O)c1Cl [TCMDC-137413] ? 129.69%

Which % inhibition, Replicate B is reported for this compound? CCCCOc1cc2ncc(C(=O)OCC)c(O)c2cc1OCCCC [TCMDC-137523] 95.02%

If you can, please state the reported % inhibition, Replicate B value of Cc1noc(C)c1-c1ccc2c(Nc3ccc(C#N)cc3)c(C(N)=O)cnc2c1 [TCMDC-136029] . 98.78%

Can you look up the measured % inhibition, Replicate B of Cl.Oc1cc(-c2nc(-c3ccccc3)[nH]c2-c2ccncc2)ccc1Cl [TCMDC-139660] for me? 69.44%

Using the record for Br.COc1ccc(CC(C)CON2C(N)=NC(N)=NC2(C)C)cc1 (stereo not drawn) [TCMDC-131722] , report its % inhibition, Replicate B. 49.29%

I have this compound here, CCCCCCCc1c(C)[nH]c2ccc(F)cc2c1=O [TCMDC-137269] , and I need its recorded % inhibition, Replicate B. 78.85%

Which % inhibition, Replicate B value belongs to CCCC(CCC)n1ccc2c3c(N)nc(N)nc3ccc21.Cl [TCMDC-137949] ? 73.31%

Value lookup for % inhibition, Replicate B; key = CC(=O)Nc1cccc(CN(Cc2ccc(-c3ccc(CNCc4cccnc4)cn3)cc2)C(=O)Cc2cccnc2)c1.O=C(O)C(F)(F)F [TCMDC-141604] 20.87%

Consider the compound shown here: COc1ccc2ncc(F)c(CCN3CCC(NCc4cc(C)c5c(c4)OCCO5)CC3)c2n1.Cl [TCMDC-136209] What is its recorded % inhibition, Replicate B? 30.84%

May I ask what % inhibition, Replicate B has been recorded for Cc1[nH]c(C)c(-c2ccc(OCCCc3ccccn3)cc2)c(=O)c1Br.Cl [TCMDC-135795] ? 89.65%

I am curious: what % inhibition, Replicate B value has been reported for Cl.NCC1(c2nc(-c3ccc(Cl)c(O)c3)c(-c3ccncc3)[nH]2)CCCCC1 [TCMDC-141154] ? 53.53%

// % inhibition, Replicate B lookup, key: CC(C)N1CCN(CCCCNc2c3ccccc3nc3ccccc23)CC1.Cl [TCMDC-137573] 78.36%

Please give the measured % inhibition, Replicate B for this compound: Cc1[nH]c(C)c(-c2ccc(OCc3cccc(C(F)(F)F)c3)nc2)c(=O)c1Br [TCMDC-135656] 102.80%

Which % inhibition, Replicate B reading was recorded for the compound CC(C)(CN)c1nc(-c2ccc(Cl)c(O)c2)c(-c2ccncc2)[nH]1.Cl [TCMDC-140369] ? 53.78%

What value of % inhibition, Replicate B has been recorded for this entry: CCOC(=O)C(=O)N1c2ccc(OCC)cc2-c2c(ssc2=S)C1(C)C [TCMDC-124090] 54.71%

Name the recorded % inhibition, Replicate B for O=C(CSc1nn(-c2ccccc2)c(=S)s1)c1c[nH]c2ccccc12 [TCMDC-124894] . 32.04%
